Target: T1, hIL-6R recombinant protein (plate-coated, Example 5) (human, UniProt P08887 20-358, limits assumed)
T1 construct: also called antigen
T1 sequence: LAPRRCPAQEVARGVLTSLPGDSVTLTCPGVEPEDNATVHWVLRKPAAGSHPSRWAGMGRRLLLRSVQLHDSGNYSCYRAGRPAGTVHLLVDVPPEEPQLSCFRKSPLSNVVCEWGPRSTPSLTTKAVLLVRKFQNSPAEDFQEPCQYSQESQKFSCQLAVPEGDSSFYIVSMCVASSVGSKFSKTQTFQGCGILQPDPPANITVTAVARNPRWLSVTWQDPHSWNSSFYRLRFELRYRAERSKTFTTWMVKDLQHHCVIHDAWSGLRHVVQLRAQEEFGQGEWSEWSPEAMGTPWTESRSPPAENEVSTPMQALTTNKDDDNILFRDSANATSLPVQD
Assay: competition ELISA on hIL-6R-coated plate presaturated with competitor control antibody; test antibody 50 ng/ml
Please provide measured % reduction of binding by control antibody for the entries that follow.
Quick reminder: number only, in %, skip the unit.

Lab book: % reduction of binding by control antibody of VV7G4-10 (antibody, V domains shown, Human variable regions with mouse constant region) VH: QVQLVQSGAEVKKPGASVKVSCKASGYTFTSYGISWVRQAPGQGLEWMGWISAYNDDTNYAQKFQGRVTMTTDTSTSTAYMELRSLRSDDTAVYYCAREAQLVLYYYYGMDVWGQGTTVTVSS VL: EIVLTQSPATLSLSPGERATLSCRASQSVSSFLAWNQQKPGQAPRLLIYDASNRATGIPARFSGSGSGTDFTLTISSLEPEDFAVYYCQQRSNWPYIFGQGTKLEIK noted as 26

Lab book: % reduction of binding by control antibody of VV9A6-11 (antibody, V domains shown, Human variable regions with mouse constant region) VH: QVQLVQSGAEVKKPGASVKVSCKASGYTFTSYGISWVRQAPGQGLEWMGWISAYNDDTNYAQKFQGRVTMTTDTSTSTAYMELRSLRSDDTAVYYCAREAQLVLYYYYGMDVWGQGTTVTVSS VL: EIVLTQSPATLSLSPGERATLSCRASQSVSSFLAWNQQKPGQAPRLLIYDASNRATGIPARFSGSGSGTDFTLTISSLEPEDFAVYYCQQRSNWPYIFGQGTKLEIK noted as 18

Lab book: % reduction of binding by control antibody of VQ8A9-6 (antibody, V domains shown, Human variable regions with mouse constant region (hybridoma-derived chimeric antibody); also called VQ8A9-6 mIgG1) VH: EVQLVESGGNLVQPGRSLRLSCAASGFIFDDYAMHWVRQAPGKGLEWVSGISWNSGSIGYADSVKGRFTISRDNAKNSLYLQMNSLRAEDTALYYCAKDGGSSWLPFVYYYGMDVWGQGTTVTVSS VL: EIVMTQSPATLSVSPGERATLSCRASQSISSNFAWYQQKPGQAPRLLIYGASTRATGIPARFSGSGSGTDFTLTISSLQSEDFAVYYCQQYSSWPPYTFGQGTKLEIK noted as 3
